Every entry's value here was drawn from patent US11542233B2.

system: TDP-43 aggregation in PC12 cells stably expressing GFP-tagged mutant TDP-43 (TDP-43^Q33IK::eGFP); assay: In vitro efficacy assay: inhibition of TDP-43 inclusions, concentration-response, fluorescence microscopy; format: cell-based; conditions: Rattus norvegicus, PC-12, PC12 cells, 1 hour pre-treatment, 15 μM sodium arsenite for 23 hours, 10-point dose response curve
pIC50: −log10 of the molar value.
MEASURED ATTRIBUTE: pIC50

Lab book: pIC50 of CCN(C(=O)c1cc2cc(C3CC3)ccc2[nH]1)[C@H]1CCC[C@@H](NCc2ccccc2)C1 [Compound 543] noted as > 7.00

Lab book: pIC50 of CCN(C(=O)c1cc2ccccc2[nH]1)[C@H]1CCC[C@@H](NC2(c3ccccc3)CC2)C1 [Compound 419] noted as 6.30 to 7.00

Lab book: pIC50 of O=C(c1cc2ccccc2[nH]1)N(CC(F)(F)F)[C@H]1CCC[C@H](NCc2ccncc2)C1 [Compound 176] noted as < 5.70

Lab book: pIC50 of CCN(C(=O)c1cc2ncncc2[nH]1)[C@H]1CCC[C@@H](NCc2ccccc2)C1 [Compound 486] noted as 6.30 to 7.00

====

I'd appreciate it if you could supply IC50 values for the items below.
system: TDP-43 aggregation in PC12 cells stably expressing GFP-tagged mutant TDP-43 (TDP-43^Q33IK::eGFP); assay: In vitro efficacy assay: inhibition of TDP-43 inclusions, concentration-response, fluorescence microscopy; assay type: cell-based; settings: Rattus norvegicus, PC-12, PC12 cells, 1 hour pre-treatment, 15 μM sodium arsenite for 23 hours, 10-point dose response curve

Lab book: IC50 of CCN(C(=O)c1cc2cc(F)ccc2[nH]1)[C@H]1CCC[C@@H](NCc2ccc(F)cc2)C1 noted as < 100 nM

Lab book: IC50 of CCN(C(=O)c1cc2ccccc2[nH]1)[C@H]1COC[C@H](N[C@@H]2CCc3ccccc32)C1 noted as 500 to 2000 nM

Lab book: IC50 of CCN(C(=O)c1cc2ncccc2[nH]1)[C@H]1CCC[C@@H](NCc2ccnc(O)c2)C1 noted as > 2000 nM

Lab book: IC50 of CCN(C(=O)c1cc2ncccc2[nH]1)[C@H]1CCC[C@@H](NCc2ccc(N=[N+]=[N-])cc2)C1 noted as < 100 nM

Lab book: IC50 of C#CCOc1ccc(C(=O)c2ccc(CN[C@@H]3CCC[C@H](N(CC)C(=O)c4cc5ncccc5[nH]4)C3)cc2)cc1 noted as < 100 nM

Lab book: IC50 of CCN(C(=O)c1cc2ccccc2[nH]1)[C@H]1CCC[C@H](NCc2cccnc2)C1 noted as 500 to 2000 nM

Lab book: IC50 of [2H]C([2H])(N[C@@H]1CCC[C@H](N(CC)C(=O)c2cc3ccccc3[nH]2)C1)c1ccccc1 noted as < 100 nM

Lab book: IC50 of CCN(C(=O)c1cc2ccccc2[nH]1)[C@H]1CCC[C@@H](N[C@H](c2cncnc2)C(F)(F)F)C1 (single isomer, unassigned) noted as 100 to 500 nM

Lab book: IC50 of O=C(c1cc2ncccc2[nH]1)N(CC(F)(F)F)[C@H]1CCC[C@@H](NCc2cccc(F)c2)C1 noted as < 100 nM

Lab book: IC50 of CCN(C(=O)c1cc2cc(C#N)ccc2[nH]1)[C@H]1CCC[C@@H](NCc2oc3ccccc3c2C)C1 noted as < 100 nM

Lab book: IC50 of CCN(C(=O)c1cc2ccccc2[nH]1)C1CCCC(NC2CCc3ccccc32)C1 (centres unmarked) noted as < 100 nM

Lab book: IC50 of CCN(C(=O)c1cc2ccccc2[nH]1)[C@H]1CCC[C@@H](NCc2nnc(C)s2)C1 noted as < 100 nM

Lab book: IC50 of CCN(C(=O)c1cc2ccccc2[nH]1)[C@H]1CCC[C@@H](N[C@@H](c2cncnc2)C(F)(F)F)C1 (single isomer, unassigned) noted as 500 to 2000 nM

Lab book: IC50 of CCN(C(=O)c1nc2cc(C#N)ccc2[nH]1)[C@H]1CCC[C@@H](NCc2oc3ccccc3c2C#N)C1 noted as < 100 nM

====

test system: TDP-43 aggregation in PC12 cells stably expressing GFP-tagged mutant TDP-43 (TDP-43^Q33IK::eGFP); assay: In vitro efficacy assay: inhibition of TDP-43 inclusions, concentration-response, fluorescence microscopy; format: cell-based; conditions: Rattus norvegicus, PC-12, PC12 cells, 1 hour pre-treatment, 15 μM sodium arsenite for 23 hours, 10-point dose response curve
pIC50: −log10 of the molar value.
I'd appreciate it if you could supply pIC50 values for the items below.

Lab book: pIC50 of CCN(C(=O)c1cc2ccccc2[nH]1)[C@H]1CCC[C@@H](NCc2cnc(C)nc2)C1 [Compound 131] noted as 6.30 to 7.00

Lab book: pIC50 of CCN(C(=O)c1cc2ncccc2[nH]1)[C@H]1CCC[C@@H](NCc2cc(C)on2)C1 [Compound 445] noted as 6.30 to 7.00

Lab book: pIC50 of CCN(C(=O)c1cc2ccccc2[nH]1)[C@H]1CCC[C@H](NCC2CCOCC2)C1 [Compound 119] noted as > 7.00

Lab book: pIC50 of CCN(C(=O)c1cc2c([nH]1)CC(C)(C)OC2)[C@H]1CCC[C@@H](NCc2ccccc2)C1 [Compound 502] noted as 5.70 to 6.30

Lab book: pIC50 of CCN(C(=O)c1cc2ccccc2[nH]1)[C@H]1CCC[C@@H](NCc2ccc(OC(F)(F)F)cc2)C1 [Compound 429] noted as > 7.00

Lab book: pIC50 of CCN(C(=O)c1cc2ncccc2[nH]1)[C@H]1CCC[C@@H](NCc2ccnc(OC)c2)C1 [Compound 440] noted as > 7.00

Lab book: pIC50 of CCN(C(=O)c1nc2cc(C(F)(F)F)ccc2[nH]1)[C@H]1CCC[C@@H](NCc2ccccc2)C1 [Compound 545] noted as > 7.00

Lab book: pIC50 of CCN(C(=O)c1cc2ncccc2[nH]1)[C@H]1CCC[C@@H](NCc2cnn(C)c2)C1 [Compound 448] noted as > 7.00

====

test system: TDP-43 aggregation in PC12 cells stably expressing GFP-tagged mutant TDP-43 (TDP-43^Q33IK::eGFP); assay: In vitro efficacy assay: inhibition of TDP-43 inclusions, concentration-response, fluorescence microscopy; assay type: cell-based; conditions: Rattus norvegicus, PC-12, PC12 cells, 1 hour pre-treatment, 15 μM sodium arsenite for 23 hours, 10-point dose response curve
pIC50: −log10 of the molar value.
I'd appreciate it if you could supply pIC50 values for the items below.

Lab book: pIC50 of C#CCOc1ccc(CN[C@@H]2CCC[C@H](N(CC)C(=O)c3nc4c([N+](=O)[O-])cccc4[nH]3)C2)cc1 noted as > 7.00

Lab book: pIC50 of CCN(C(=O)c1nc2cc(C#N)ccc2[nH]1)[C@H]1CCC[C@@H](NCc2ccc3ocnc3c2)C1 noted as > 7.00

Lab book: pIC50 of CCN(C(=O)c1cc2ccccc2[nH]1)[C@H]1CCC[C@@H](NCc2cc(C)no2)C1 noted as 6.30 to 7.00

Lab book: pIC50 of CCN(C(=O)c1ccccn1)[C@H]1CCC[C@@H](NCc2ccccc2)C1 noted as < 5.70

Lab book: pIC50 of O=C(c1cc2ccccc2[nH]1)N(CC(F)(F)F)[C@H]1COC[C@@H](NCc2ccccc2)C1 noted as 6.30 to 7.00

Lab book: pIC50 of CCN(C(=O)c1cc2cc(F)ccc2[nH]1)[C@H]1CCC[C@@H](NCc2cccc(F)c2)C1 noted as > 7.00

Lab book: pIC50 of CCN(C(=O)c1cc2ccccc2[nH]1)[C@@H]1COC[C@@H](N[C@@H]2CCc3ccccc32)C1 noted as < 5.70

====

test system: TDP-43 aggregation in PC12 cells stably expressing GFP-tagged mutant TDP-43 (TDP-43^Q33IK::eGFP); assay: In vitro efficacy assay: inhibition of TDP-43 inclusions, concentration-response, fluorescence microscopy; format: cell-based; details: Rattus norvegicus, PC-12, PC12 cells, 1 hour pre-treatment, 15 μM sodium arsenite for 23 hours, 10-point dose response curve
MEASURED ATTRIBUTE: IC50

Lab book: IC50 of CCN(C(=O)c1nc2ccccc2[nH]1)[C@H]1CCC[C@@H](NCc2cc(C3CC3)on2)C1 noted as < 100 nM

Lab book: IC50 of CCN(C(=O)c1nc2cc(OC(F)(F)F)ccc2[nH]1)[C@H]1CCC[C@@H](NCc2ccccc2)C1 noted as < 100 nM

Lab book: IC50 of CCN(C(=O)c1cc2ccccc2[nH]1)[C@H]1CCC[C@@H](N(C)Cc2ccccc2)C1 noted as 100 to 500 nM

Lab book: IC50 of CCN(C(=O)c1cc2cc(OC(F)(F)F)ccc2[nH]1)[C@H]1CCC[C@@H](NCc2ccccc2)C1 noted as < 100 nM
